Test system: K4 kissing-loop RNA reporter;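 further: bound reporter read as fluorescence of individual clusters on recovered sequencing chips by microscopy, with normalized cluster intensities fitted with a binding model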
Test: apparent KD of K4 kissing-loop reporter; higher = weaker reporter binding
Details: Eterna round: R107; input ligand: tryptophan 2.4 mM
Entries and their apparent KD of K4 kissing-loop reporter values follow.
Use µM as the unit, but write only the number.

AAUGUACAAGUGAUGUUUGUACUUUCCGAAGGAGCGUCUAAUAAGACAGGUAGGUCGCGGAUACUCUAAAUAAUCAGGUCAUUGA [#06 K4 Arginine A Exclusion]
0.0774
UUGCGGAGUGAUGUUUCGGGAUAUCGGGAAGGAGCGCCGAUAACGGCAGGUAGGUCGCCCGGUCCAGUGAUGUUGGGCAUGCAUU [Exclusion Arg A GF 23]
0.171
CGCCGGAAGGCGGUCGCUCCCACUCCGGAAGGAGCGCCCGGAAGGGCAGGUAGGUCGCCGGAGUGAUGUUCCGGUGGAGGGACCG [#2 Exclusion - Arginine A Attempt #10 (Inspired by Omei)]
0.109
UGACUGGACUGAAGGAGCGCUAAACUCCUAGUGAUGUUAGGGAAACAAGACAAAGUCUUGAGGCAGGUAGGUCGCAGUCUAGUCU [FiskerMod 3 - Jieux - Same State - Arginine B]
0.225

// next item, apparent KD of K4 kissing-loop reporter requested
Would you mind telling me what apparent KD of K4 kissing-loop reporter value was observed for AAUAUAGUGAUGUUAUAUAAGAAGGAGUUACGAGGACCGGUACGGCCGCCACUCGAAACGAGUGAAGAAGGAGGAAGGAGGAGGA [SSTRyptA.A] ?
0.366

The reported measurements were obtained from the supplement of paper PMC9170038.
